system: multiple myeloma cell line NCI-H929; experiment: H929 Cell Viability Assay; type: cell-based, human; conditions: Homo sapiens, NCI-H929, 48 h, NCI-H929 cells, Celltiter-Glo
EXPERIMENTAL_READOUT: EC50 (µM)

A = C[S+]([O-])N1CC(Oc2ccc(N3CCC[C@@H]3c3csc(NC(=O)c4cccn4Cc4ccnc(F)c4)n3)cc2)C1 (stereo partly shown)
B = CC(=O)Nc1ccc(N2CCC[C@@H]2c2csc(NC(=O)c3cccn3Cc3ccnc(F)c3)n2)cc1F
Which one would you say has the larger EC50 value: A , or B ? Mark your selection by writing its label. A
(A: 1.02 µM, B: 0.39 µM)

====

tested on: multiple myeloma cell line NCI-H929; assay: H929 Cell Viability Assay; assay type: cell-based, human; settings: Homo sapiens, NCI-H929, 48 h, NCI-H929 cells, Celltiter-Glo
pEC50: −log10 of the molar value.
EXPERIMENTAL_READOUT: pEC50

NCc1ccc(N2CCC[C@@H]2c2csc(NC(=O)c3cccn3Cc3ccncc3)n2)cc1 ... 5.48
O=C(Nc1nc([C@H]2CCCN2c2ccc(OC3CCNC3)cc2)cs1)c1cccn1Cc1ccnc(F)c1 (some centres unmarked) ... 5.24

1 = CN(C)CCO[C@@H]1C[C@H](c2csc(NC(=O)c3cccn3Cc3ccncc3)n2)N(c2ccccc2)C1
2 = O=C(Nc1nc(/C=C/C2CN(S(=O)(=O)c3ccccc3)CCO2)cs1)c1cccn1Cc1ccncc1 (centres unmarked)
3 = O=C(Nc1nc([C@H]2CCCN2c2ccccc2)cs1)c1cccn1Cc1ccnc(F)c1
4 = C[C@@H](CC#N)Cn1cccc1C(=O)Nc1nc([C@H]2CCCN2c2ccccc2)cs1
Thanks in advance: please rank these 4 entries by pEC50, highest to lowest. Put the labels in the requested order and write them down. 3, 4, 1, 2

====

test system: IL-2-FL/Gaussia Luciferase; test: Dox Induced IL2-FL-Gluc Assay; format: cell-based; details: ratio of IL2FLGluc IC50 to PD1ssGluc IC50
24 hr Dox Inducible IL2FLGluc 293FRT/TO: IL2/PD1 for assorted compounds
Give the figure by itself; no unit, no explanation.

Examples with answers:
CC(=O)Nc1ccc(N2CCC[C@@H]2c2csc(NC(=O)c3cccn3Cc3ccnc(F)c3)n2)cc1F ... 2.1
O=C(Nc1nc([C@H]2CCCN2c2ccc(OC3CSC3)cc2)cs1)c1cccn1Cc1ccnc(F)c1 ... 1.2
CC(=O)N1CCC[C@H](Oc2ccc(N3CCC[C@@H]3c3csc(NC(=O)c4cccn4Cc4ccnc(F)c4)n3)cc2)C1 ... 2.1
CC(=O)N1CCC(C)(Oc2ccc(N3CCC[C@@H]3c3csc(NC(=O)c4cccn4Cc4ccnc(F)c4)n3)cc2)CC1 ... 1.7
CC(=O)N1CCC(Oc2ccc(N3CCC[C@@H]3c3csc(NC(=O)c4cccn4Cc4ccnc(F)c4)n3)cc2Cl)CC1 ... 2.4
CS(=O)(=O)N1CCC(Oc2ccc(N3CCC[C@@H]3c3csc(NC(=O)c4cccn4Cc4ccnc(F)c4)n3)cc2)CC1 ... 1.6
NC(=O)c1ccc(N2CCC[C@@H]2c2csc(NC(=O)c3cccn3Cc3ccnc(F)c3)n2)cc1 ... 3.8
O=C(Nc1nc(/C=C/C2CN(S(=O)(=O)c3ccccc3)CCO2)cs1)c1cccn1Cc1ccncc1 (stereo not drawn) ... 2
CC1CCCn2cnc(/C=C/c3csc(NC(=O)c4cccn4Cc4ccnc(F)c4)n3)c21 (stereo not drawn) ... 170
CC1CCCc2c(/C=C/c3csc(NC(=O)c4cccn4Cc4ccnc(F)c4)n3)ncn21 (stereo not drawn) ... 560

Now turn to the next compound.
So what's the measured 24 hr Dox Inducible IL2FLGluc 293FRT/TO: IL2/PD1 for this one? CC(=O)N[C@@H](C)c1ccc(N2CCC[C@@H]2c2csc(NC(=O)c3cccn3Cc3ccnc(F)c3)n2)cc1 2.2

====

assay: Liver Microsome Stability Assay (rat); conditions: rat liver microsomes, with NADPH, 1.0 uM compound
EXPERIMENTAL_READOUT: Liver Microsome Stability (Multiple Species): Rat - % Remaining after 30 min w/NADPH (%)

Cc1c(/C=C/c2csc(NC(=O)c3cccn3Cc3ccnc(F)c3)n2)ncn1C(C)C ... 8.66

1 = CN(C)C(=O)CCn1cccc1C(=O)Nc1nc([C@H]2CCCN2c2ccccc2)cs1
2 = CC(=O)N1CCC[C@@H](Oc2ccc(N3CCC[C@@H]3c3csc(NC(=O)c4cccn4Cc4ccnc(F)c4)n3)cc2)C1
3 = CC(=O)N1CCC(C)(Oc2ccc(N3CCC[C@@H]3c3csc(NC(=O)c4cccn4Cc4ccnc(F)c4)n3)cc2)CC1
Kindly order the items shown according to Liver Microsome Stability (Multiple Species): Rat - % Remaining after 30 min w/NADPH, from the highest value down. Answer format: the labels, ordered as requested. 3, 2, 1
(3: 42.4%, 2: 16.6%, 1: 11.5%)

====

assay: Liver Microsome Stability Assay (rat); details: rat liver microsomes, with NADPH, 1.0 uM compound
EXPERIMENTAL_READOUT: Liver Microsome Stability (Multiple Species): Rat - % Remaining after 30 min w/NADPH (%)

COC(=O)Nc1ccc(N2CCC[C@@H]2c2csc(NC(=O)c3cccn3Cc3ccnc(F)c3)n2)nc1 ... 0.32
CC1=NC(/C=C/c2csc(NC(=O)c3cccn3Cc3ccncc3)n2)CO1 (stereo not shown) ... 3.31
CC(C)c1ccc(N2CCC[C@@H]2c2csc(NC(=O)c3cccn3Cc3ccncc3)n2)cc1 ... 40.2

I = O=C(CO)Nc1ccc(N2CCC[C@@H]2c2csc(NC(=O)c3cccn3Cc3ccnc(F)c3)n2)cc1
II = O=C(Nc1nc(/C=C/c2ncc(F)cc2F)cs1)c1cccn1CC1CCOCC1 [Compound D2]
III = CNS(=O)(=O)N1CC(Oc2ccc(N3CCC[C@@H]3c3csc(NC(=O)c4cccn4Cc4ccnc(F)c4)n3)cc2)C1
IV = CC(=O)Nc1ccc(N2CCC[C@@H]2c2csc(NC(=O)c3cccn3Cc3ccnc(F)c3)n2)cc1
Put the entries in order of Liver Microsome Stability (Multiple Species): Rat - % Remaining after 30 min w/NADPH, starting with the largest number. Reply format: the labels, ordered as requested. III, IV, I, II

a = O=C(Nc1nc([C@H]2CCCN2c2ccccc2)cs1)c1cccn1CC1CCC(F)(F)C1 (stereo partly shown)
b = CC(C)c1ccc(/C=C/c2csc(NC(=O)c3cccn3Cc3ccnc(F)c3)n2)nc1
c = O=C(Nc1nc([C@H]2CCCN2c2ccc(OC3CCS(=O)(=O)CC3)cc2)cs1)c1cccn1Cc1ccnc(F)c1
d = Cc1cccnc1N1CCC[C@@H]1c1csc(NC(=O)c2cccn2Cc2ccncc2)n1
e = COCCOc1ccc(N2CCC[C@@H]2c2csc(NC(=O)c3cccn3Cc3ccnc(F)c3)n2)cc1
List items by Liver Microsome Stability (Multiple Species): Rat - % Remaining after 30 min w/NADPH in falling order. Put the labels in the requested order and list them out. c, a, b, e, d
(c: 37.2%, a: 6.16%, b: 0.46%, e: 0.26%, d: 0.16%)

a = CC(C)n1ccc(/C=C/c2csc(NC(=O)c3cccn3Cc3ccnc(F)c3)n2)n1
b = O=C(Nc1nc(/C=C/c2c[nH]cn2)cs1)c1cccn1Cc1ccncc1
Given the two records a and b , choose the one whose Liver Microsome Stability (Multiple Species): Rat - % Remaining after 30 min w/NADPH value is lower. Please identify the chosen entry by its label. a

P = CC(C)c1ccc(/C=C/c2csc(NC(=O)c3cccn3Cc3cccnc3)n2)nc1
Q = COC(=O)Cn1cnc(/C=C/c2csc(NC(=O)c3cccn3Cc3ccnc(F)c3)n2)c1C
R = C[C@H](CC#N)Cn1cccc1C(=O)Nc1nc([C@H]2CCCN2c2ccccc2)cs1
# desc sort on Liver Microsome Stability (Multiple Species): Rat - % Remaining after 30 min w/NADPH across 3 compounds Note for the reader: the ranking is given by listing the labels in the order requested. R, Q, P
(R: 5.31%, Q: 2.69%, P: 0.18%)

1 = Cc1coc(/C=C/c2csc(NC(=O)c3cccn3Cc3ccncc3)n2)n1
2 = CCc1ccc(N2CCC[C@@H]2c2csc(NC(=O)c3cccn3Cc3ccncc3)n2)nc1
3 = NS(=O)(=O)N1CC(Oc2ccc(N3CCC[C@@H]3c3csc(NC(=O)c4cccn4Cc4ccnc(F)c4)n3)cc2)C1
Put the items in sequence by Liver Microsome Stability (Multiple Species): Rat - % Remaining after 30 min w/NADPH, from largest down. To answer, arrange all of the labels according to the requested order. 3, 2, 1
(3: 51.6%, 2: 2.87%, 1: 0.15%)

A = O=C(Nc1nc(C2C3CN(c4ccccn4)CC32)cs1)c1cccn1Cc1ccncc1 (stereo not shown)
B = O=C(Nc1nc([C@H]2CCCN2)cs1)c1cccn1Cc1ccncc1
Please compare: A and B . Report which one has the smaller Liver Microsome Stability (Multiple Species): Rat - % Remaining after 30 min w/NADPH value. Answer by stating the label of the chosen item. A

A = CN(C)c1ccc(N2CCC[C@@H]2c2csc(NC(=O)c3cccn3Cc3ccncc3)n2)cc1
B = CC(C)n1cnc(-c2cccc(-c3csc(NC(=O)c4cccn4Cc4ccnc(F)c4)n3)c2)c1
C = COc1ccc(O[C@H]2CCC[C@H](c3csc(NC(=O)c4cccn4Cc4ccncc4)n3)C2)nc1
D = CC(=O)N1CC(OC(=O)Nc2ccc(N3CCC[C@@H]3c3csc(NC(=O)c4cccn4Cc4ccnc(F)c4)n3)cc2)C1
Thanks in advance: please rank these 4 entries by Liver Microsome Stability (Multiple Species): Rat - % Remaining after 30 min w/NADPH, highest to lowest. Reply format: the labels, ordered as requested. D, B, C, A

1 = CCc1ccc(N2CCC[C@@H]2c2csc(NC(=O)c3cccn3CC3CCOCC3)n2)nc1
2 = CC(=O)Nc1ccc(N2CCC[C@@H]2c2csc(NC(=O)c3cccn3CC3CCOCC3)n2)cc1
Sorting by Liver Microsome Stability (Multiple Species): Rat - % Remaining after 30 min w/NADPH in descending order, would 1 or 2 appear first? Reply with the label of the item you choose. 2
